Entries and their measured pIC50 follow.
# experimental.system: UniProt:P06239
pIC50: −log10 of the molar value.

Study these solved cases before continuing.
Cc1cc(NC(=O)/C=C/CN(C)C2CC2)cc(-n2c(=O)n(-c3ccc(Oc4ccccc4)cc3C)c3c(N)ncnc32)c1 [Compound 298] | 5.00 to 6.00
CN(C(=O)/C=C/CN(C)C1CC1)c1cccc(-n2c(=O)n(-c3ccc(Oc4cccc(F)c4)cc3)c3c(N)ncnc32)c1 [Compound 151] | 5.00 to 6.00

Attention now shifts to the item below.
Looking up CN(C(=O)/C=C/CN(C)C1CC1)c1cccc(-n2c(=O)n(-c3ccc(Oc4ccccc4)cc3)c3c(N)ncnc32)c1 [Compound 34] , I see its pIC50 listed as 5.00 to 6.00

====

Consider the following IC50 values measured on LCK (Homo sapiens).

CN(C/C=C/C(=O)Nc1cccc(-n2c(=O)n(-c3ccc(Oc4cccc(F)c4)cc3)c3c(N)ncnc32)c1)[C@H]1CCOC1 [Compound 316] | 1000 to 10000 nM
COCCN(C)C/C=C/C(=O)N(C)c1cccc(-n2c(=O)n(-c3ccc(Oc4ccccc4)cc3)c3c(N)ncnc32)c1 [Compound 134] | 1000 to 10000 nM

Attention now shifts to the item below.
Looking up COc1cc(-n2c(=O)n(-c3cccc(NC(=O)/C=C/CN(C)C)c3)c3ncnc(N)c32)ccc1C [Compound 17] , I see its IC50 listed as 1000 to 10000 nM

====

# experimental.system: LCK (Homo sapiens, UniProt P06239)
# Sequence (P06239 whole entry, species assumed): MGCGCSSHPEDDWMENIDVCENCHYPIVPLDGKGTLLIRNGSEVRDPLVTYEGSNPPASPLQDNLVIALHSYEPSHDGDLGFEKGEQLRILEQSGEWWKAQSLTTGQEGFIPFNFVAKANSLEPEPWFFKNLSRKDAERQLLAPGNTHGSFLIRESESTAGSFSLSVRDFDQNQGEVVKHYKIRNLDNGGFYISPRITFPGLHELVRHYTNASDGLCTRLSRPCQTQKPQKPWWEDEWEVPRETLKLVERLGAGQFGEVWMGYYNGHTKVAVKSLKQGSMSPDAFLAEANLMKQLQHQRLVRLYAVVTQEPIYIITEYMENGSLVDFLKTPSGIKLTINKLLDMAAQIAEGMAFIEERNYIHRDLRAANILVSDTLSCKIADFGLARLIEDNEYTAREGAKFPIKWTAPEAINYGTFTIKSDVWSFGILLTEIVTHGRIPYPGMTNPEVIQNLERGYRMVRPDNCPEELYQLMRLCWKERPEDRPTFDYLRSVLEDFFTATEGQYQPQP
pIC50: −log10 of the molar value. Counter-ions that a name gives are not always drawn.
measure.name: pIC50

Study these solved cases before continuing.
CN(C/C=C/C(=O)N1CC[C@@H](n2c(=O)n(-c3ccc(Oc4ccccc4)cc3)c3c(N)ncnc32)C1)C1CC1 [Compound 63] | 6.00 to 7.00
COc1cc(-n2c(=O)n(-c3cccc(N(C)C(=O)/C=C/CN(C)C4CC4)c3)c3ncnc(N)c32)ccc1OCc1ccccc1 [Compound 295] | < 5.00
CN(C(=O)/C=C/CN(C)[C@@H]1CCOC1)c1cccc(-n2c(=O)n(-c3ccc(Oc4ccccc4)cc3)c3c(N)ncnc32)c1 [Compound 129] | 5.00 to 6.00
Cc1cccc(COc2ccc(-n3c(=O)n(-c4cccc(N(C)C(=O)/C=C/CN(C)C5CC5)c4)c4ncnc(N)c43)cc2)c1 [Compound 239] | < 5.00
CN(C(=O)/C=C/CN(C)C1CC1)c1cccc(-n2c(=O)n(-c3ccc(OCc4ccccc4)cc3)c3c(N)ncnc32)c1 [Compound 234] | 5.00 to 6.00

Looking up COc1ccc(-n2c(=O)n(-c3ccc(Oc4ccccc4)cc3)c3c(N)ncnc32)cc1N(C)C(=O)/C=C/CN(C)C1CC1 [Compound 171] , I see its pIC50 listed as 5.00 to 6.00

Looking up CNC/C=C/C(=O)N(C)c1cccc(-n2c(=O)n(-c3ccc(Oc4ccccc4)cc3)c3c(N)ncnc32)c1 [Compound 229, hydrochloride] , I see its pIC50 listed as 5.00 to 6.00

Looking up CN(C(=O)/C=C/CN(C)C1CC1)c1ccc(-n2c(=O)n(-c3ccc(Cl)cc3)c3c(N)ncnc32)cc1 [Compound 49] , I see its pIC50 listed as 5.00 to 6.00

====

Consider the following IC50 values measured on LCK (Homo sapiens).

Study these solved cases before continuing.
COCCN(C)C/C=C/C(=O)Nc1cccc(-n2c(=O)n(-c3ccc(Oc4ccccc4)cc3)c3c(N)ncnc32)c1 [Compound 318] | 0.1 to 1 µM
Cc1cc(NC(=O)/C=C/CN(C)C2CC2)cc(-n2c(=O)n(-c3ccc(Oc4ccccc4)cc3)c3c(N)ncnc32)c1 [Compound 255] | 0.1 to 1 µM
CNC/C=C/C(=O)Nc1cccc(-n2c(=O)n(-c3ccc(Oc4ccccc4)cc3)c3c(N)ncnc32)c1 [Compound 329] | 0.1 to 1 µM

Attention now shifts to the item below.
Record COCCOc1ccc(-n2c(=O)n(-c3ccc(C)c(OC)c3)c3c(N)ncnc32)cc1NC(=O)/C=C/CN(C)C [Compound 112] has LCK (Homo sapiens) IC50 equal to 1 to 10 µM

====

# experimental.system: LCK (Homo sapiens, UniProt P06239)
pIC50: −log10 of the molar value.
Entries and their measured pIC50 follow.

CN(C)C/C=C/C(=O)N1CC[C@@H](n2c(=O)n(-c3ccc(Cl)cc3)c3c(N)ncnc32)C1 | 5.00 to 6.00
CN(C(=O)/C=C/CN(C)C1CCC1)c1ccc(-n2c(=O)n(-c3ccc(Oc4ccccc4)cc3)c3c(N)ncnc32)cc1 | 6.00 to 7.00
CN(C)C/C=C/C(=O)Nc1cccc(-n2c(=O)n(-c3ccc(Cl)cc3)c3c(N)ncnc32)c1 | 5.00 to 6.00

Record COc1cc(-n2c(=O)n(-c3ccc(N(C)C(=O)/C=C/CN(C)C)cc3)c3ncnc(N)c32)ccc1C has LCK (Homo sapiens, UniProt P06239) pIC50 equal to 5.00 to 6.00

Record Cc1cc(Oc2ccccc2)ccc1-n1c(=O)n(-c2cccc(N(C)C(=O)/C=C/CN(C)C3CC3)c2)c2ncnc(N)c21 has LCK (Homo sapiens, UniProt P06239) pIC50 equal to 5.00 to 6.00

Record Cc1ccc(-n2c(=O)n(-c3ccc(Oc4ccccc4)cc3)c3c(N)ncnc32)cc1N(C)C(=O)/C=C/CN(C)C1CC1 has LCK (Homo sapiens, UniProt P06239) pIC50 equal to 5.00 to 6.00

Record CN(C(=O)/C=C/CN(C)C1CC1)c1cccc(-n2c(=O)n(-c3ccc(OCc4cccc(F)c4)cc3)c3c(N)ncnc32)c1 has LCK (Homo sapiens, UniProt P06239) pIC50 equal to < 5.00
